- assay system: HIV-1 Env of isolate MGRM-G-014 (subtype G), on pseudovirus (HIV-1)
- test method notes: cell-based or functional assay
property name: IC50 (µg/mL), neutralization of pseudovirus
Give bare numbers, in µg/mL.

PGT-127 (antibody, V domains shown) VH: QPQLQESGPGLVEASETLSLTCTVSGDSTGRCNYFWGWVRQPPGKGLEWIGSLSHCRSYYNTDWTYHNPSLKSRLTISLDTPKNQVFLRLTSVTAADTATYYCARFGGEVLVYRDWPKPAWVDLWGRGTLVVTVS VL: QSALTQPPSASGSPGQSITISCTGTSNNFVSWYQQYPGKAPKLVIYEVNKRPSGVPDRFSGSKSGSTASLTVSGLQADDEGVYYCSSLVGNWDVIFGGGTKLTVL: 0.009

Please examine the following record next.
stdin: Consider the binder PGT-126 (antibody, V domains shown) VH: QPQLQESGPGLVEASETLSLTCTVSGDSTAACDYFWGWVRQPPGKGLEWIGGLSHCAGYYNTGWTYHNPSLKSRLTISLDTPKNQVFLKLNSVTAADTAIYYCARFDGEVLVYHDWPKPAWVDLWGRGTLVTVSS VL: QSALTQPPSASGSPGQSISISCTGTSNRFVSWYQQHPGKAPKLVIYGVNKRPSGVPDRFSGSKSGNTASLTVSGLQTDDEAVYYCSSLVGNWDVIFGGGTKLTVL . State its measured IC50 (µg/mL), neutralization of pseudovirus.
stdout: 0.009
